Can you tell me inhibition for the items I'm about to list?
System tested: Tyrosinase (Agaricus bisporus) (UniProt O42713)
Experiment description: Inhibition of mushroom tyrosinase using L-DOPA as substrate after at 30 uM after 5 mins relative to control
Answer with a number only, understood to be in %.

Asked: For Tyrosinase (Agaricus bisporus) (UniProt O42713), give inhibition of the listed molecule: CC(C)=CCC/C(C)=C/Cc1c(O)ccc2[nH]c3ccc(C)cc3c12
Given back: 5.9

Asked: For Tyrosinase (Agaricus bisporus) (UniProt O42713), give inhibition of the listed molecule: CC(C)=CCCC1(C)C=Cc2c(ccc3c2[nH]c2ccc(C)cc23)O1 (stereo not given)
Given back: -0.3

Asked: For Tyrosinase (Agaricus bisporus) (UniProt O42713), give inhibition of the listed molecule: Oc1cccc2[nH]c3ccccc3c12
Given back: 0.9

Asked: For Tyrosinase (Agaricus bisporus) (UniProt O42713), give inhibition of the listed molecule: c1ccc2c(c1)[nH]c1ccccc12
Given back: 1.7

Asked: For Tyrosinase (Agaricus bisporus) (UniProt O42713), give inhibition of the listed molecule: CC(C)=CCCC1(C)C=Cc2c(c(C)cc3c2[nH]c2ccccc23)O1 (stereo not given)
Given back: 2.7

###

System tested: Tyrosinase (Agaricus bisporus) (UniProt O42713)
Sequence (whole entry): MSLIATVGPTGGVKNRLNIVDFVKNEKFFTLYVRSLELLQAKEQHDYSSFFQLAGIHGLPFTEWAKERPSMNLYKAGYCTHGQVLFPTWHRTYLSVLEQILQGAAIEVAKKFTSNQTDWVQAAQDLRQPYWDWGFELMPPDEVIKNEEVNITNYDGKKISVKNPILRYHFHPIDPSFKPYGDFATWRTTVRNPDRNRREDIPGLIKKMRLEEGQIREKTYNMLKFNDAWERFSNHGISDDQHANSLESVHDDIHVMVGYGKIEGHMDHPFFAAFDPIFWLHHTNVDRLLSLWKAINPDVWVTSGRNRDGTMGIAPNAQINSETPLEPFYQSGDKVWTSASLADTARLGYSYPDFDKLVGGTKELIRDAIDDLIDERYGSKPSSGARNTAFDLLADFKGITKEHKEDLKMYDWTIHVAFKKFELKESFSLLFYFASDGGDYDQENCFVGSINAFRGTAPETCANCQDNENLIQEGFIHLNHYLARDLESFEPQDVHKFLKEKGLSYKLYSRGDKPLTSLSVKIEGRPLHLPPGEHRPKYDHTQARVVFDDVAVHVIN
Experiment description: Inhibition of mushroom tyrosinase using L-DOPA as substrate after at 3 uM after 5 mins relative to control
Can you tell me inhibition for the items I'm about to list?
Answer format: value, then unit.

Asked: Input COc1ccc2c(c1)[nH]c1c3c(c(C)cc12)O[C@](C)(CCC=C(C)C)C=C3 , output reported inhibition.
Given back: 0.1%

Asked: Input COc1cccc2c1[nH]c1c3c(c(C)cc12)OC(C)(CCC=C(C)C)C=C3 (stereo not given) , output reported inhibition.
Given back: -2.8%

Asked: Input c1ccc2c(c1)[nH]c1ccccc12 [CARBAZOLE] , output reported inhibition.
Given back: -1.8%

Asked: Input CC(C)=CCC/C(C)=C/Cc1c(O)ccc2[nH]c3ccc(C)cc3c12 [EUSTIFOLINE C] , output reported inhibition.
Given back: 2.7%

Asked: Input CC(C)=CCCC1(C)C=Cc2c(c(C)cc3c2[nH]c2ccccc23)O1 (stereo not given) [MAHANIMBINE] , output reported inhibition.
Given back: -3.2%

###

Experiment description: Cytotoxicity against mouse theophylline-induced B16-4A5 cells assessed as cell viability at 1 uM after 72 hrs by WST8 assay relative to control
Type: cell-based
Assay context: read-out: Activity
Measured endpoint: viability at 72 h, 1 µM (%)
Answer with a number only, understood to be in %.

Asked: Input CC(C)=CCC/C(C)=C/Cc1c(O)ccc2[nH]c3ccc(C)cc3c12 [EUSTIFOLINE C] , output reported viability at 72 h, 1 µM.
Given back: 104

Asked: Input c1ccc2c(c1)[nH]c1ccccc12 [CARBAZOLE] , output reported viability at 72 h, 1 µM.
Given back: 108

Asked: Input COc1ccc2[nH]c3c4c(c(C)cc3c2c1)OC(C)(C)C=C4 [KOENIMBINE] , output reported viability at 72 h, 1 µM.
Given back: 114

Asked: Input CC(C)=CCCC1(C)C=Cc2c(c(C)cc3c2[nH]c2ccccc23)O1 (stereo not given) [MAHANIMBINE] , output reported viability at 72 h, 1 µM.
Given back: 94.3

Asked: Input COc1ccc2c(c1)[nH]c1c3c(c(C)cc12)O[C@](C)(CCC=C(C)C)C=C3 , output reported viability at 72 h, 1 µM.
Given back: 105

Asked: Input COc1cccc2c1[nH]c1c3c(c(C)cc12)OC(C)(CCC=C(C)C)C=C3 (stereo not given) , output reported viability at 72 h, 1 µM.
Given back: 101

Asked: Input Cc1cc2c3ccc(O)cc3n3c2c2c1O[C@@]1(C)CC[C@H]([C@H]2C1)C3(C)C (relative stereo) , output reported viability at 72 h, 1 µM.
Given back: 101

Asked: Input CC(C)=CCCC1(C)C=Cc2c(ccc3c2[nH]c2ccc(C)cc23)O1 (stereo not given) , output reported viability at 72 h, 1 µM.
Given back: 110

Asked: Input COc1ccc2c([nH]c3cc(O)c(C)cc32)c1C/C=C(\C)CCC=C(C)C [EUCHRESTINE B] , output reported viability at 72 h, 1 µM.
Given back: 105

Asked: Input Oc1cccc2[nH]c3ccccc3c12 , output reported viability at 72 h, 1 µM.
Given back: 101

###

System tested: Tyrosinase (Agaricus bisporus)
Experiment description: Inhibition of mushroom tyrosinase using L-DOPA as substrate after at 100 uM after 5 mins relative to control
Measured endpoint: inhibition (%)
Answer with a number only, understood to be in %.

Asked: Input COc1cccc2c1[nH]c1c3c(c(C)cc12)OC(C)(CCC=C(C)C)C=C3 (stereo unspecified) , output reported inhibition.
Given back: -0.8

Asked: Input Oc1cccc2[nH]c3ccccc3c12 , output reported inhibition.
Given back: 3.3

Asked: Input CC(C)=CCC/C(C)=C/Cc1c(O)ccc2[nH]c3ccc(C)cc3c12 [EUSTIFOLINE C] , output reported inhibition.
Given back: 16.1

Asked: Input COc1ccc2[nH]c3c4c(c(C)cc3c2c1)OC(C)(C)C=C4 [KOENIMBINE] , output reported inhibition.
Given back: 4.3

Asked: Input CC(C)=CCCC1(C)C=Cc2c(ccc3c2[nH]c2ccc(C)cc23)O1 (stereo unspecified) , output reported inhibition.
Given back: -3.4

Asked: Input c1ccc2c(c1)[nH]c1ccccc12 [CARBAZOLE] , output reported inhibition.
Given back: 0.1

###

Experiment description: Cytotoxicity against mouse theophylline-induced B16-4A5 cells assessed as cell viability at 3 uM after 72 hrs by WST8 assay relative to control
Type: cell-based
Assay context: read-out: Activity
Measured endpoint: viability at 72 h, 3 µM (%)
Answer with a number only, understood to be in %.

Asked: Input COc1ccc2[nH]c3c4c(c(C)cc3c2c1)OC(C)(C)C=C4 , output reported viability at 72 h, 3 µM.
Given back: 92.4

Asked: Input CC(C)=CCCC1(C)C=Cc2c(ccc3c2[nH]c2ccc(C)cc23)O1 (centres undefined) , output reported viability at 72 h, 3 µM.
Given back: 117

Asked: Input Oc1cccc2[nH]c3ccccc3c12 , output reported viability at 72 h, 3 µM.
Given back: 100

Asked: Input COc1cccc2c1[nH]c1c3c(c(C)cc12)OC(C)(CCC=C(C)C)C=C3 (centres undefined) , output reported viability at 72 h, 3 µM.
Given back: 97.3

###

System tested: Tyrosinase (Agaricus bisporus) (UniProt O42713)
Experiment description: Inhibition of mushroom tyrosinase using L-DOPA as substrate after at 1 uM after 5 mins relative to control
Measured endpoint: inhibition (%)
Answer with a number only, understood to be in %.

Asked: Input COc1cccc2c1[nH]c1c3c(c(C)cc12)OC(C)(CCC=C(C)C)C=C3 (stereo not given) , output reported inhibition.
Given back: -1

Asked: Input c1ccc2c(c1)[nH]c1ccccc12 , output reported inhibition.
Given back: 1

Asked: Input COc1ccc2c([nH]c3cc(O)c(C)cc32)c1C/C=C(\C)CCC=C(C)C , output reported inhibition.
Given back: -6.5

Asked: Input CC(C)=CCC/C(C)=C/Cc1c(O)ccc2[nH]c3ccc(C)cc3c12 , output reported inhibition.
Given back: 1

Asked: Input CC(C)=CCCC1(C)C=Cc2c(c(C)cc3c2[nH]c2ccccc23)O1 (stereo not given) , output reported inhibition.
Given back: -1.3
